biological target: Substance-K receptor (Homo sapiens); assay: Binding affinity for human tachykinin receptor 2 expressed in CHO cells using [125I]- NKA radioligand; format: cell-based
Sequence (P21452 whole entry): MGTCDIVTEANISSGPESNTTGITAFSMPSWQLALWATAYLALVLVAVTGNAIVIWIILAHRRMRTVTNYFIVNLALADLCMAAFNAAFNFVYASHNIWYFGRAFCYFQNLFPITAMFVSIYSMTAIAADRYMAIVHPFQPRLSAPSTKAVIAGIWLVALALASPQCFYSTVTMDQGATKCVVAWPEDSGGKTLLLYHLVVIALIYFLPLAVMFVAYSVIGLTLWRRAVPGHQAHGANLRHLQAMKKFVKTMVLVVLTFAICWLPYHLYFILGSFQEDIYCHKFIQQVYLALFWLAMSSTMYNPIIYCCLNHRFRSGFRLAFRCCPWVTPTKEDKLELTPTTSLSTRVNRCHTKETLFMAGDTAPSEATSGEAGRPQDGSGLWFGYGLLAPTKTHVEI
MEASUREMENT LABEL: pIC50

- MOLECULE: "CN(CC(CCN1CC(n2ccnc2)C1)c1ccc(Cl)c(Cl)c1)C(=O)c1ccccc1 (stereo not drawn)"
  OBSERVED MEASUREMENT: 6.8
- MOLECULE: "CN(CC(CCN1CCC(n2cnc3ccccc32)CC1)c1ccc(Cl)c(Cl)c1)C(=O)c1ccccc1 (stereo not drawn)"
  OBSERVED MEASUREMENT: 8.1
- MOLECULE: "CN(CC(CCN1CCC(n2cncn2)CC1)c1ccc(Cl)c(Cl)c1)C(=O)c1ccccc1 (stereo not drawn)"
  OBSERVED MEASUREMENT: 6.8

Data origin: ChEMBL document CHEMBL1144946
